Provenance of the data: patent US7803795B2

Counter-ions that a name gives are not always drawn.
measured property: melting point

>  <molecule>
CC(=O)N1CCC(c2n[nH]c(=O)c3ccccc23)CC1

>  <observed>
222 °C

$$$$
>  <molecule>
O=c1[nH]nc(N[C@@H]2C[C@H]3CC[C@@H](C2)N3CCCC(c2ccc(F)cc2)c2ccc(F)cc2)c2ccccc12 (hydrate or solvate)

>  <observed>
164.4 °C

$$$$
>  <molecule>
Clc1nnc(NC2CCN(Cc3ccccc3)C2)c2ccccc12 (stereo not shown) (as salt: HCl) (hydrate or solvate)

>  <observed>
171.8 °C

$$$$
>  <molecule>
O=c1[nH]nc(C2CCN(CCCOc3ccc(F)cc3)CC2)c2ccccc12 (as salt: HCl)

>  <observed>
227.6 °C

$$$$

* * *

# target: PARP-1 enzyme (Homo sapiens)
# Construct: made in house
# Sequence (P09874 whole entry): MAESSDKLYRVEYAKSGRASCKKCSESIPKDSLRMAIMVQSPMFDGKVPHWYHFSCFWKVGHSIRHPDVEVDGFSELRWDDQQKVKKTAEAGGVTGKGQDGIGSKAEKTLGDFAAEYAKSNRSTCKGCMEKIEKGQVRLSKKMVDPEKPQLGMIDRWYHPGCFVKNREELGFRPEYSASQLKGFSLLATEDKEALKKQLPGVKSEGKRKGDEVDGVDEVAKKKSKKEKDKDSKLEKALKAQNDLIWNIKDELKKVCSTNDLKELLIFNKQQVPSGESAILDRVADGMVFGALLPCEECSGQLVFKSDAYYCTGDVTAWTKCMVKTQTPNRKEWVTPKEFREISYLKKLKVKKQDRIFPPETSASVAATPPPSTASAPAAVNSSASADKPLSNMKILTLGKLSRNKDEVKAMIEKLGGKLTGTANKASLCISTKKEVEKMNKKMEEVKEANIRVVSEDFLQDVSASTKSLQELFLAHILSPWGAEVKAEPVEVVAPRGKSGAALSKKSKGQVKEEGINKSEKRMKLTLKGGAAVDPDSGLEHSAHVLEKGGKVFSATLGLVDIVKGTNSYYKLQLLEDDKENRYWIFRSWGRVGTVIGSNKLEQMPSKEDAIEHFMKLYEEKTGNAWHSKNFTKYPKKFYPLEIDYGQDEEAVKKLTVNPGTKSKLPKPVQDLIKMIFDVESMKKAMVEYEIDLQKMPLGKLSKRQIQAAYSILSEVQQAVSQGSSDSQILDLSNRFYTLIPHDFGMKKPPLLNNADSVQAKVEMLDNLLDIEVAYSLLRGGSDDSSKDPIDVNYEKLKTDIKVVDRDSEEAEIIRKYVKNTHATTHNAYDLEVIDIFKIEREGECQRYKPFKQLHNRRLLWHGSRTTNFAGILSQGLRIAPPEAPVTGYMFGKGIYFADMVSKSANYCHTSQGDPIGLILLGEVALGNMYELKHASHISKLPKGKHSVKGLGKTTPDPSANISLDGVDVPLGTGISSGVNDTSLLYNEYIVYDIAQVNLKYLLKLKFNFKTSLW
# assay overview: in vitro filtration assay for PARP-1 inhibitory activity
# Type: biochemical
# condition description: [32P]-NAD, histones, nicked DNA; dose-response 10^-5 M to 10^-8 M; read-out: in vitro filter assay PARP-1 pIC50 (converted)
Parameter: log10 of IC50. Scope: all listed entries.
measured property: log10 of IC50 (log10 of the value in nM)

>  <compound>
Cc1nc2sccn2c(=O)c1CCN1CCN(c2nnc(C)c3ccccc23)CC1

>  <log10 of IC50>
2.71

$$$$
>  <compound>
O=c1[nH]nc(N2CCN(CCCC(c3ccc(F)cc3)c3ccc(F)cc3)CC2)c2ccccc12

>  <log10 of IC50>
2.55

$$$$
>  <compound>
O=c1[nH]nc(N[C@@H]2C[C@H]3CC[C@@H](C2)N3)c2ccccc12

>  <log10 of IC50>
1.55

$$$$
>  <compound>
COc1ccc(CCN2CCC(c3n[nH]c(=O)c4ccccc34)CC2)cc1

>  <log10 of IC50>
1.47

$$$$
>  <compound>
O=c1[nH]nc(NC2CCNCC2)c2cc(Cl)ccc12

>  <log10 of IC50>
2.33

$$$$
>  <compound>
O=c1[nH]nc(N2CCC(NCc3ccccc3)CC2)c2ccccc12

>  <log10 of IC50>
2.04

$$$$
>  <compound>
O=c1[nH]nc(N[C@H]2CCN[C@@H](Cc3ccccc3)C2)c2ccccc12 [Compound 10]

>  <log10 of IC50>
1.39

$$$$
>  <compound>
Cc1nc2n(c(=O)c1CCN1CCN(c3nnc(C)c4ccccc34)CC1)CCS2

>  <log10 of IC50>
2.56

$$$$
>  <compound>
CCOC(=O)N1CCN(c2nnc(Cl)c3ccccc23)CC1

>  <log10 of IC50>
2.50

$$$$
>  <compound>
Clc1nnc(NC2CCN(CCCCOc3ccccc3)CC2)c2ccccc12

>  <log10 of IC50>
2.91

$$$$
>  <compound>
Cc1nnc(N2CCN(CCn3c(=O)[nH]c4ccccc43)CC2)c2ccccc12

>  <log10 of IC50>
2.73

$$$$
>  <compound>
O=c1[nH]nc(C2CCN(C/C=C/c3ccccc3)CC2)c2ccccc12

>  <log10 of IC50>
1.98

$$$$
>  <compound>
CCOC(=O)N1CCC(Nc2n[nH]c(=O)c3ccccc23)C1 (centres unmarked)

>  <log10 of IC50>
2.21

$$$$
>  <compound>
NCCN1CCC(Nc2n[nH]c(=O)c3ccccc23)CC1

>  <log10 of IC50>
2.19

$$$$
>  <compound>
O=c1[nH]nc(N2CCC(c3cccc(C(F)(F)F)c3)C2)c2ccccc12 (centres unmarked)

>  <log10 of IC50>
2.32

$$$$
>  <compound>
CCOC(=O)N1CC[C@H](Nc2n[nH]c(=O)c3ccccc23)C[C@@H]1Cc1ccccc1

>  <log10 of IC50>
2.58

$$$$
>  <compound>
O=c1[nH]nc(NC2CCNCC2)c2cccc([N+](=O)[O-])c12

>  <log10 of IC50>
2.34

$$$$
>  <compound>
O=c1[nH]nc(N[C@@H]2C[C@H]3CC[C@@H](C2)N3CCCC(c2ccc(F)cc2)c2ccc(F)cc2)c2ccccc12

>  <log10 of IC50>
2.31

$$$$
>  <compound>
Nc1ccc2c(=O)[nH]nc(NC3CCNCC3)c2c1

>  <log10 of IC50>
2.88

$$$$
>  <compound>
O=c1[nH]nc(C2CCNCC2)c2ccccc12

>  <log10 of IC50>
1.85

$$$$
>  <compound>
O=c1[nH]nc(C2CCN(CCCCOc3ccccc3)CC2)c2ccccc12

>  <log10 of IC50>
1.70

$$$$
>  <compound>
O=c1[nH]nc(NC2CCN(C[C@@H](O)[C@@H]3CCc4ccccc4O3)CC2)c2ccccc12 (relative stereo)

>  <log10 of IC50>
2.33

$$$$
>  <compound>
CC(=O)N1CCC(c2n[nH]c(=O)c3ccccc23)CC1

>  <log10 of IC50>
2.43

$$$$
>  <compound>
CCOC(=O)N1CCCC(Nc2n[nH]c(=O)c3ccccc23)CC1 (centres unmarked)

>  <log10 of IC50>
2.81

$$$$
>  <compound>
Cc1nc2n(c(=O)c1CCN1CCN(c3nnc(C)c4ccccc34)CC1)CCCS2

>  <log10 of IC50>
2.62

$$$$
>  <compound>
O=c1[nH]nc(C2CCN(Cc3ccccc3)CC2)c2ccccc12

>  <log10 of IC50>
1.74

$$$$
>  <compound>
O=c1[nH]nc(C2CCN(c3ncccn3)CC2)c2ccccc12

>  <log10 of IC50>
2.10

$$$$
>  <compound>
CC(C)(C)OC(=O)N1CCC(CNc2n[nH]c(=O)c3ccccc23)CC1

>  <log10 of IC50>
2.26

$$$$
>  <compound>
O=c1[nH]nc(NC2CCN(Cc3ccccc3)C2)c2ccccc12 (centres unmarked)

>  <log10 of IC50>
2.48

$$$$
